test system: HCT-116 colon; assay: NCI tumour cell line growth inhibition, 48 h; in the data active = GI50 below about 0.43 µM; inactive = the rest
Assign a class; possible classes are 1 for active, -1 for inactive

CC(C)N1CCN(Cc2ccc3c(NNC(=O)c4ccccc4)nc4cc(F)ccc4n23)CC1    1
COc1cc(-c2cc(-c3ccc(Nc4ccnc5cc(Cl)ccc45)cc3)nc(N3CCOCC3)n2)cc(OC)c1OC    -1
CCOC(=O)c1c(Br)c(-c2ccc(OC)cc2)c(Br)n1C    -1
CC1=CC(=O)C(C(C)C)=CC1=Nc1cc(Br)c(O)c(Br)c1    -1
Nc1cc(O)ccc1N=Nc1ccc(-c2nc3ccccc3[nH]2)cc1    -1

Call for entry CCC(c1ccc(OC)cc1)C(CC)c1ccc(O)c(CN2CCN(C)CC2)c1 (stereo not given) :
-1

Please share the test call associated with COc1cc2c(cc1OC)C(Sc1ccc(SC)cc1)c1c(nc(N)c(C#N)c1N)O2 (stereo not given) .
-1

Assay result, entry Cn1nc(-c2ccc(Cl)cc2)nc2c(=O)n(C)c(=O)nc1-2 — outcome?
1

Query: recorded result category for Cc1ccc(/C=C2\CN(C(=O)C(Cl)Cl)C/C(=C\c3ccc(C)cc3)C2=O)cc1 in this test
1

For COc1ccc(S(=O)(=O)NC2=NCCN2C(=S)SN2CCn3c2nsc3=S)cc1 , what call appears in the results of this test?
-1

---

tested on: IGROV1 ovarian; assay: NCI tumour cell line growth inhibition, 48 h
reported property: GI50

Nc1ccccc1.[C-]#[O+].[C-]#[O+].[C-]#[O+].[C-]#[O+].[C-]#[O+].[Cr]    5.53 µM

# batch size: 4; output GI50 per entry
1. COc1ccc(/C=c2\sc3n(c2=O)C2C(NN=3)N(C)C(=O)N2C)cc1 (stereo not drawn)
2. N#Cc1c(Br)n(C2OC(CO)C(O)C2O)c2ncnc(N)c12 (stereo not drawn)
3. COc1cc(-c2cc(-c3ccc(Nc4ccnc5cc(Cl)ccc45)cc3)nc(N3CCOCC3)n2)cc(OC)c1OC
4. CN(Cc1cccc(F)c1)c1ccc(CO)c(Cl)c1

1. 1.32 µM
2. 0.333 µM
3. 1.91 µM
4. 0.361 µM

---

Would you mind telling me the reported TGI of each entry?
test system: CCRF-CEM leukemia; test: NCI tumour cell line growth inhibition, 48 h

As a guide, the following entries are already answered.
O=C(CCCCCCCCC(=O)N1C(=O)CC(=O)N(c2ccccc2)C1=S)N1C(=O)CC(=O)N(c2ccccc2)C1=S    > 100 µM
COc1cc(OC)c2nccc(NCCCN(C)C)c2c1[N+](=O)[O-]    > 100 µM

Hey, can you go through the list below and give me TGI for every item?
1. C(=N\Nc1ccc(-c2nc3ccccc3[nH]2)cc1)/c1c(-c2ccc(Cc3ccccc3)cc2)[nH]c2ccccc12
2. COC(=O)C(=CNC(N)=O)C(=O)OC
3. COc1cc2c(cc1OC)C(Sc1ccc(SC)cc1)c1c(nc(N)c(C#N)c1N)O2 (configuration not stated)
4. O=C(O)c1cn(C2CC2)c2cc(N3CCN(C(=O)Nc4nc(-c5ccccc5)cs4)CC3)c(F)cc2c1=O
5. O=[N+]([O-])c1ccc(Oc2nc(Nc3ccc(O[C@H]4CO[C@H]5[C@@H]4OC[C@@H]5O)c(Cl)c3)ncc2F)c(Cl)c1
6. CC1(C)O[C@@H](CCl)C[C@H](C#N)O1
7. COc1ccc(NC(=O)CC(=O)n2nc(C)c(N=Nc3cccc(C)c3)c2C)cc1

["> 100 µM", "> 100 µM", "4.28 µM", "> 100 µM", "7.2 µM", "> 100 µM", "> 100 µM"]

Your task in this section: give TGI for each listed record.
1. CSc1cc(-c2ccccn2)nc(-c2ccccn2)c1
2. O=S(=O)(O)c1ccc(N=Nc2nc(C(F)(F)F)c(C(F)(F)F)[nH]2)cc1
3. COc1ccc(/C=C2\CCS(=O)(=O)c3ccccc3C2=O)cc1OC
4. CCOc1cc(Br)c(C(C)NC(=O)c2cccc(OC)c2)cc1OCC (configuration not stated)

1. > 100 µM
2. > 100 µM
3. > 100 µM
4. > 100 µM

Give measured TGI for every item shown.
1. CCN(Cc1ccc(F)cc1)c1ccc(CO)c(C)c1
2. C#CC[N+](C)(CC#C)CC#C
3. Cc1cc2cc3ccc(N(C)C)cc3nc2cc1N
4. COc1cccc(-c2nn(-c3ccccc3)cc2-c2ccnc(NCCNC(=O)Nc3cccc(C(F)(F)F)c3)c2)c1
5. COc1cccc(-c2ccc3c(c2)C2CCN(Cc4ccccc4)C3C2)c1 (configuration not stated)
6. COc1ccc(C(c2ccc(OCCN(C)C)cc2)c2cc3ccccc3c3ccccc23)cc1 (configuration not stated)
7. O=C(NCCO)c1ccc([N+](=O)[O-])cc1
8. CCC(c1ccc(OC)cc1)C(CC)c1ccc(O)c(CN2CCN(C)CC2)c1 (configuration not stated)

1: 59.2 µM; 2: > 100 µM; 3: 10.7 µM; 4: 7 µM; 5: 56.1 µM; 6: 3.91 µM; 7: > 100 µM; 8: 20.4 µM

Reported TGI for CCRF-CEM leukemia, given CCCC(C)n1c(C)nc2c1C(=O)c1ccccc1C2=O (configuration not stated) ?
> 100 µM
